assayed.target: flTau aggregates (longest isoform of human Tau, 2N4R) (Homo sapiens)
Construct: 35 μM of recombinant full-length (fl) Tau in phosphate-buffered saline (PBS) were aggregated; purchased Biotechne; host or cells: bacteria
assay.notes: Full-length Tau (flTau) disaggregation assay by Thioflavin T (ThT)
Type: biochemical
test.conditions: read-out: flTau disaggregation EC50; ThT fluorescence; 60 nM flTau aggregates, 30 minutes at RT
pEC50: −log10 of the molar value.
readout: pEC50

Asked: Specify pEC50 for Cn1cc(C2CCN(c3ccc4oc(N5CC6CC(C5)O6)nc4c3)C2)c2cc(F)cnc21 (stereo not shown) [Example 99] and stop.
Given back: 5.00 to 6.00

* * *

assayed.target: flTau aggregates (longest isoform of human Tau, 2N4R) (Homo sapiens, UniProt P10636)
Construct: 35 μM of recombinant full-length (fl) Tau in phosphate-buffered saline (PBS) were aggregated; purchased Biotechne; host or cells: bacteria
Sequence (P10636 1-441 isoform P10636-8): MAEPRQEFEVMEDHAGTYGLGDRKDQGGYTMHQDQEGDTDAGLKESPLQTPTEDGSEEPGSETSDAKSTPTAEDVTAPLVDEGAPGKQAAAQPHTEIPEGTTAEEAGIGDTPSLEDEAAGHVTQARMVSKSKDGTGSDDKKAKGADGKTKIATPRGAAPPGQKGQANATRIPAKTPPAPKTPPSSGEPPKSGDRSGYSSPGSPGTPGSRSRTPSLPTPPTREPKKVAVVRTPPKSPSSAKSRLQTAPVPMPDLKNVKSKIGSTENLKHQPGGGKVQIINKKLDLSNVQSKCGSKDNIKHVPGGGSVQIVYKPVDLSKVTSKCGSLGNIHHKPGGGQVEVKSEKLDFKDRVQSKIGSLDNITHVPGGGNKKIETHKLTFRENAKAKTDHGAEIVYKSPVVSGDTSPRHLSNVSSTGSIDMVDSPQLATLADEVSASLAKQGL
assay.notes: Full-length Tau (flTau) disaggregation assay by Thioflavin T (ThT)
Format: biochemical
test.conditions: ThT fluorescence; 60 nM flTau aggregates, 30 minutes at RT; read-out: flTau disaggregation EC50
pEC50: −log10 of the molar value. Where a name gives a salt, the structure may show the parent alone.
readout: pEC50

Worked examples, 9 compounds total:
c1ccn2c(C3CCN(c4ccc5oc(N6CCOCC6)nc5c4)CC3)cnc2c1 = 5.00 to 6.00
COc1ccc2c(C3CCN(c4ccc5oc(N6CCOCC6)nc5c4)CC3)c[nH]c2n1 = 5.00 to 6.00
c1ccc2c(-c3cnn(-c4ccc5oc(N6CCOCC6)nc5c4)c3)n[nH]c2c1 = > 6.00
COC1CCN(c2nc3cc(N4CCC(c5cn(C)c6ncc(F)cc56)C4)ccc3o2)CC1 (stereo not shown) [Example 96] = 5.00 to 6.00
Fc1cnc2c(C3CCN(c4ccc5nc(N6CCOCC6)sc5c4)CC3)c[nH]c2c1 = > 6.00
Cn1cc(C2CCN(c3ccc4nc(N5CCOCC5)sc4c3)C2)c2cc(F)cnc21 (stereo not shown) [Example 82] = > 6.00
COC1CCN(c2nc3cc(N4CCC(c5cn(C)c6ncc(F)cc56)C4)ccc3o2)CC1 (stereo not shown) [Example 97] = 5.00 to 6.00
c1ccc2c(C3CCN(c4cnc5nc(N6CCOCC6)oc5c4)CC3)n[nH]c2c1 = 5.00 to 6.00
c1cnc2[nH]cc(C3CCN(c4ccc5oc(N6CCOCC6)nc5c4)CC3)c2c1 = > 6.00

Next compound, please.
Asked: Look up pEC50 of Cn1cc(C2CCN(c3cnc4nc(N5CCOCC5)sc4c3)CC2)c2cc(F)cnc21 [Example 109, hydrochloride] and report it.
Given back: 5.00 to 6.00

* * *

assayed.target: Tau K18 fragment aggregates (amino acids 244 to 372 of human Tau441) (Homo sapiens, UniProt P10636)
Construct: encompassing amino acids 244 to 372 of the longest isoform (2N4R) of human Tau441
Sequence (P10636 561-689): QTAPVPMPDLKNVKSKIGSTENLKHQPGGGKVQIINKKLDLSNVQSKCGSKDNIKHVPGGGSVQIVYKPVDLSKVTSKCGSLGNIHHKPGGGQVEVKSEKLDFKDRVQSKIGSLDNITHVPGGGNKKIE
assay.notes: Tau K18 disaggregation assay by ThT
test.conditions: ThT fluorescence; 2 μM K18 aggregates, 30 minutes at RT
Protocol: Tau K18 Disaggregation Assay by ThT The Tau K18 fragment, encompassing amino acids 244 to 372 of the longest isoform (2N4R) of human Tau441, was expressed in bacteria and purified (Biotechne). […] Fluorescence (relative fluorescence units; RFU) was measured in monoplicate or duplicate on a Tecan reader (excitation: 440 nm; emission: 485 nm). […]
Counter-ions that a name gives are not always drawn.
readout: EC50

Example entries begin here.
c1ccc2c(-c3cnn(-c4ccc5oc(N6CCOCC6)nc5c4)c3)c[nH]c2c1 = < 1 µM
c1cnc2[nH]cc(C3CCN(c4ccc5oc(N6CCOCC6)nc5c4)CC3)c2c1 = 1 to 10 µM
Cn1cc(C2CC3CN(c4ccc5oc(N6CCOCC6)nc5c4)CC3C2)c2cc(F)cnc21 (stereo not drawn) [Example 112, hydrochloride] = 1 to 10 µM
c1ccc2c(C3CCN(c4ccc5oc(N6CCOCC6)nc5c4)CC3)c[nH]c2c1 = 1 to 10 µM

Please report EC50 for every entry that follows.
1. c1ccc2c(C3CCN(c4cnc5nc(N6CCOCC6)oc5c4)CC3)n[nH]c2c1
2. O=C(Nc1c[nH]c2ccccc12)c1ccc2oc(N3CCOCC3)nc2c1
3. c1ccc2c(C3CCN(c4cc5sc(N6CCOCC6)nc5cn4)CC3)c[nH]c2c1

Given back:
10 to 50 µM
< 1 µM
< 1 µM

Look at each compound and report its EC50.
1. O=C(Nc1ccc2nc(N3CCOCC3)oc2c1)c1n[nH]c2ccccc12
2. c1ccc2c(C3CCN(c4cnc5sc(N6CCOCC6)nc5c4)CC3)n[nH]c2c1
3. COc1ccc2c(C3CCN(c4ccc5oc(N6CCOCC6)nc5c4)CC3)c[nH]c2n1
4. Cn1cc(C2CCN(c3cnc4nc(N5CCOCC5)sc4c3)CC2)c2cc(F)cnc21 [Example 109, hydrochloride]
5. Fc1cnc2c(C3CCN(c4ccc5oc(N6CCOCC6)nc5c4)CC3)c[nH]c2c1

Given back:
["10 to 50 µM", "10 to 50 µM", "1 to 10 µM", "10 to 50 µM", "1 to 10 µM"]

For every item in the list below, what is its measured EC50?
1. c1ccc2c(C3CCN(c4ccc5sc(N6CCOCC6)nc5n4)CC3)n[nH]c2c1
2. c1ccc2c(C3CCN(c4cnc5nc(N6CCOCC6)sc5c4)CC3)n[nH]c2c1
3. c1ccc2c(Nc3ccc4oc(N5CCOCC5)nc4c3)n[nH]c2c1
4. c1ccc2c(C3CCN(c4cc5sc(N6CCOCC6)nc5cn4)CC3)n[nH]c2c1
5. c1cc2c(C3CCN(c4ccc5oc(N6CCOCC6)nc5c4)CC3)c[nH]c2cn1

Given back:
1. 1 to 10 µM
2. 1 to 10 µM
3. 10 to 50 µM
4. 1 to 10 µM
5. 10 to 50 µM
